Test system: DU-145 prostate
Assay: NCI tumour cell line growth inhibition, 48 h
Record form. Attribute: GI50. Fill in for each entry.

Ask: # GI50 lookup, item CN(C)CC(O)c1ccc(/C=C/c2ccc(Cl)cc2)cc1 (stereo not drawn)
Reply: 1.52 µM

Ask: COCCn1cc(-c2nc(-c3cc4cccnc4[nH]3)cs2)c2cc(OC)ccc21 , same question.
Reply: 3.96 µM

Ask: Cn1cc(-c2cc3c(N4CCN(c5ncc([C@@](C)(N)c6ccc(F)cc6)cn5)CC4)ncnn3c2)cn1 , same question.
Reply: > 100 µM

Ask: O=C1c2c(F)c(F)c(F)c(F)c2C(=O)N1c1ccc(F)cc1F , same question.
Reply: 8 µM

Ask: CC(=O)N[C@@H](Cc1ccc(OP(=O)(O)O)cc1)C(=O)N[C@H]1CCC(=O)N2CCC[C@@H](C(=O)Nc3cccc4ccccc34)N2C1=O , same question.
Reply: > 25 µM

Ask: OC(c1cc(C(F)(F)F)nc2c(C(F)(F)F)cccc12)C1CCCCN1 (stereo not drawn) , same question.
Reply: 2.76 µM

Ask: COc1ccc(CN2C(=O)C(Cl)=C(Nc3cccc(C(F)(F)F)c3)C2=O)cc1 , same question.
Reply: 8.19 µM

Ask: C=C1C(=O)O[C@H]2[C@H]1CC/C(CNC(=O)c1cc3ccccc3[nH]1)=C\CC[C@@]1(C)O[C@@H]21 , same question.
Reply: 0.575 µM

###

Record form. Attribute: TGI. Fill in for each entry.
Test system: SF-539 CNS
Test: NCI tumour cell line growth inhibition, 48 h

Ask: # TGI lookup, item COc1ccccc1CC(=O)C(O)(C(F)(F)F)C(F)(F)F
Reply: > 100 µM

Ask: CC1=C/C(=N\NC(N)=S)C(C(O)(C(F)(F)F)C(F)(F)F)C(C)(C)C1 (configuration not stated) , same question.
Reply: > 10 µM

Ask: CCCCCCCCCCSC(=N)N (tested in a mixture with another compound) , same question.
Reply: 23.8 µM

Ask: COc1ccc(S(=O)(=O)n2c3c(c4ccccc42)[C@@H]2[C@@H](CCCN2C(=O)CS(=O)c2ccc(C)cc2)[C@H](Cl)C3)cc1 (some centres not stated) , same question.
Reply: > 100 µM

Ask: c1ccc(-c2n(Cc3ccc4ccccc4n3)cc[n+]2Cc2ccc3ccccc3c2)cc1 , same question.
Reply: 4.64 µM

Ask: CC(=O)N[C@@H](Cc1ccc(OP(=O)(O)O)cc1)C(=O)N[C@H]1CCC(=O)N2CCC[C@@H](C(=O)Nc3cccc4ccccc34)N2C1=O , same question.
Reply: > 25 µM

Ask: O=C1NC(=NCc2ccccc2)S/C1=C\c1ccc2ncccc2c1 , same question.
Reply: > 25 µM

Ask: Cc1ccc(Nc2nc(NNC(=O)Cc3ccccc3)nc(NNC(=O)c3ccncc3)n2)cc1 , same question.
Reply: > 10 µM

Ask: CN(C)CC1CCCC/C1=N/O (configuration not stated) , same question.
Reply: > 100 µM

Ask: NC(=S)N/N=C1\c2cc(Cl)ccc2-c2c1cc(Cl)cc2[N+](=O)[O-] , same question.
Reply: 88.2 µM

Ask: O=C1NC2(CCN(CCc3ccccc3)CC2)Oc2ccccc21 , same question.
Reply: > 100 µM

Ask: COc1ccc(C(c2cc(OC)c(OC)c(OC)c2)n2cncn2)cc1O (configuration not stated) , same question.
Reply: 1.11 µM
